Test system: E. coli 100/B22
Test: In vitro antibacterial activity, MIC (modified Autotiter method)
Type: cell-based, Escherichia coli
Conditions: Escherichia coli, 100/B22, 20 h, 18-20 hours at 37° C.; read-out: MIC E. coli 100/B22
Procedure: The antibacterial and antifungal activity of representative examples of the compounds of Formula I was determined using a modification of the Autotiter method described by Goss, et al. Applied Microbiology 16 (9) 1,414-1,416 (1968) in which a 1,000 mcg./ml. solution of the test compound is prepared. To the first cup of the Autotray is added 0.1 ml. of the test solution. […]
parameterMeasured: MIC (µg/mL)

>  <compound>
CCCCCCCNc1cc[n+](CCCC[n+]2ccc(NCCCCCCC)cc2)cc1

>  <assayTarget>
E. coli 100/B22

>  <parameterMeasured>
MIC

>  <relationalOperator>
=

>  <recordedNumber>
15.6

$$$$
>  <compound>
CCCCCCCCCNc1cc[n+](CCCCCCCCCC[n+]2ccc(NCCCCCCCCC)cc2)cc1

>  <assayTarget>
E. coli 100/B22

>  <parameterMeasured>
MIC

>  <relationalOperator>
=

>  <recordedNumber>
3.9

$$$$
>  <compound>
CCCCCCCCCNc1cc[n+](CCCCCCCCC[n+]2ccc(NCCCCCCCCC)cc2)cc1

>  <assayTarget>
E. coli 100/B22

>  <parameterMeasured>
MIC

>  <relationalOperator>
=

>  <recordedNumber>
1.95

$$$$
>  <compound>
CCCCCCCCCCCCNc1cc[n+](CCCCCCC[n+]2ccc(NCCCCCCCCCCCC)cc2)cc1

>  <assayTarget>
E. coli 100/B22

>  <parameterMeasured>
MIC

>  <relationalOperator>
=

>  <recordedNumber>
62.5

$$$$
>  <compound>
CCCCC(CC)CNc1cc[n+](CCCCCCCCC[n+]2ccc(NCC(CC)CCCC)cc2)cc1 (centres unmarked)

>  <assayTarget>
E. coli 100/B22

>  <parameterMeasured>
MIC

>  <relationalOperator>
=

>  <recordedNumber>
0.98

$$$$
>  <compound>
CCCCCCCCCCNc1cc[n+](CCCCCCCCC[n+]2ccc(NCCCCCCCCCC)cc2)cc1

>  <assayTarget>
E. coli 100/B22

>  <parameterMeasured>
MIC

>  <relationalOperator>
=

>  <recordedNumber>
3.9

$$$$
>  <compound>
CCCCCCCCCCCCNc1cc[n+](CCCCCCCC[n+]2ccc(NCCCCCCCCCCCC)cc2)cc1

>  <assayTarget>
E. coli 100/B22

>  <parameterMeasured>
MIC

>  <relationalOperator>
>

>  <recordedNumber>
62.5

$$$$
>  <compound>
Clc1ccc(Nc2cc[n+](CCCCCCCC[n+]3ccc(Nc4ccc(Cl)cc4)cc3)cc2)cc1 [Example 78B]

>  <assayTarget>
E. coli 100/B22

>  <parameterMeasured>
MIC

>  <relationalOperator>
=

>  <recordedNumber>
3.1

$$$$

* * *

test system: young adult male Swiss-Webster strain albino mice; assay: Acute oral toxicity (ALD50); assay type: in vivo; conditions: 1000 mg/kg oral, aqueous solution
Each entry below carries its recorded Mortality 7 Days.
parameterMeasured: Mortality 7 Days

>  <molecule>
CCCCCCCCNc1cc[n+](CCCCCCCC[n+]2ccc(NCCCCCCCC)cc2)cc1

>  <result>
2/3

$$$$
>  <molecule>
CCCCC(CC)CNc1cc[n+](CCCCCCCCCC[n+]2ccc(NCC(CC)CCCC)cc2)cc1 (stereo not drawn)

>  <result>
1/3

$$$$
>  <molecule>
CCCCCCCCNc1cc[n+](CCCCCCCCCC[n+]2ccc(NCCCCCCCC)cc2)cc1 [10A,B]

>  <result>
0/3

$$$$
